FYI, the data here is from patent US20070293467A1.

# Tested on: HT-29
# Assay Name: MTT tetrazolium microculture growth inhibition, HT-29
# Type: cell-based
# Recorded Conditions: 72 h exposure, read-out: Average growth-inhibitory activity (IC50)
pIC50: −log10 of the molar value.
Reported pIC50 values are given for each entry in this list.
Property: pIC50

Molecule	Property	Value Measured
N.N.O=C([O-])C1(C(=O)[O-])CCC1.[Pt+2] [Carboplatin, reference compound]	pIC50	3.87
O=C1[O][Pt]2([NH][C@H]3CCCC[C@@H]3[NH]2)[O]C(=O)C2C3CCC(O3)C12 (stereo partly drawn) [Trans-S,S(+)-DMC platinum complex, Trans-S,S-(+)-DMC platinum complex]	pIC50	5.51
O=C1[O][Pt]2([NH][C@@H]3CCCC[C@H]3[NH]2)[O]C(=O)C2C3CCC(O3)C12 (mixture of isomers) [Trans-DMC platinum complex, Trans-Racemic DMC Platinum Complex]	pIC50	5.68
N.N.[Cl][Pt][Cl] [Cisplatin, reference compound]	pIC50	4.92
O=C1[O][Pt]2([NH][C@@H]3CCCC[C@H]3[NH]2)[O]C(=O)C2C3CCC(O3)C12 (stereo partly drawn) [Trans-R,R(−)-DMC platinum complex, Trans-R,R-(−)-DMC platinum complex]	pIC50	6.04

---

# System: L1210 resistance
# Assay Name: MTT tetrazolium microculture growth inhibition, L1210 resistance
# Type: cell-based
# Recorded Conditions: L1210 resistance vs L1210
Property: resistance / cross-resistance of L1210

Molecule	Value Measured
N.N.O=C([O-])C1(C(=O)[O-])CCC1.[Pt+2] [Carboplatin, reference compound]	high resistance
O=C1[O][Pt]2([NH][C@H]3CCCC[C@@H]3[NH]2)[O]C(=O)C2C3CCC(O3)C12 (stereo partly drawn) [Trans-S,S(+)-DMC platinum complex, Trans-S,S-(+)-DMC platinum complex]	no cross-resistance
O=C1[O][Pt]2([NH][C@@H]3CCCC[C@H]3[NH]2)[O]C(=O)C2C3CCC(O3)C12 (stereo partly drawn) [Trans-R,R(−)-DMC platinum complex, Trans-R,R-(−)-DMC platinum complex]	no cross-resistance
O=C1[O][Pt]2([NH][C@@H]3CCCC[C@H]3[NH]2)[O]C(=O)C2C3CCC(O3)C12 (mixture of isomers) [Trans-DMC platinum complex, Trans-Racemic DMC Platinum Complex]	no cross-resistance
N.N.[Cl][Pt][Cl] [Cisplatin, reference compound]	high resistance

---

# System: colorectal cancer cell line Colo320
# Assay Name: MTT tetrazolium microculture growth inhibition, Colo320
# Format: cell-based
# Recorded Conditions: Colo320; 72 h exposure, MTT; read-out: Average growth-inhibitory activity (IC50)
pIC50: −log10 of the molar value.
Property: pIC50

Molecule	Property	Value Measured
O=C1[O][Pt]2([NH][C@H]3CCCC[C@H]3[NH]2)[O]C(=O)C2C3CCC(O3)C12 (stereo partly drawn) [Cis-DMC platinum complex]	pIC50	5.22
N.N.O=C([O-])C1(C(=O)[O-])CCC1.[Pt+2] [Carboplatin, reference compound]	pIC50	4.38
O=C1[O][Pt]2([NH][C@@H]3CCCC[C@H]3[NH]2)[O]C(=O)C2C3CCC(O3)C12 (mixture of isomers) [Trans-DMC platinum complex, Trans-Racemic DMC Platinum Complex]	pIC50	5.60
O=C1[O][Pt]2([NH][C@@H]3CCCC[C@H]3[NH]2)[O]C(=O)C2C3CCC(O3)C12 (stereo partly drawn) [Trans-R,R(−)-DMC platinum complex, Trans-R,R-(−)-DMC platinum complex]	pIC50	5.61
O=C1[O][Pt]2([NH][C@@H]3CCCC[C@H]3[NH]2)[O]C1=O [Oxaliplatin, reference compound]	pIC50	6.00
O=C1[O][Pt]2([NH][C@H]3CCCC[C@@H]3[NH]2)[O]C(=O)C2C3CCC(O3)C12 (stereo partly drawn) [Trans-S,S(+)-DMC platinum complex, Trans-S,S-(+)-DMC platinum complex]	pIC50	5.30
N.N.[Cl][Pt][Cl] [Cisplatin, reference compound]	pIC50	5.60
